Every entry's value here was drawn from patent US9115073B2.

# system: hPPARalpha (Homo sapiens, UniProt Q07869)
# Construct: Gal4-hPPARα(LBD); Gal4 (fusion partner); expressed in transfected cells; host or cells: COS-7 (monkey kidney)
# Sequence (Q07869 239-466 limits assumed): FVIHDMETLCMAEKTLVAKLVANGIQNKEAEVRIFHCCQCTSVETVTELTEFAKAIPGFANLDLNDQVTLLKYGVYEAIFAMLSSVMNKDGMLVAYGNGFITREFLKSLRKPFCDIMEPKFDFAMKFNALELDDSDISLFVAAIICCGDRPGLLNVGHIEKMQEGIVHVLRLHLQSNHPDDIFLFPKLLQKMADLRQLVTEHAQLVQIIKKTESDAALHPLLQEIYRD
# test method notes: Gal4-hPPARalpha transactivation assay in COS-7 cells (luciferase)
# Format: cell-based
# recorded conditions: COS-7, maximal relative activation vs reference; read-out: Gal4-hPPARα(LBD) TOP (% ref)
experimental readout: Emax (%)

P = COc1cc(OC(F)(F)F)ccc1C(OC)C1CC1c1cc(C)c(OC(C)(C)C(=O)O)c(C)c1 (racemic)
Q = COC(c1ccc(OC(F)(F)F)cc1)C1CC1c1ccc(OC(C)(C)C(=O)O)c(C2CC2)c1 (racemic)
Prompt: I'd appreciate it if you could identify which of P and Q has the greater Emax. Indicate which entry you chose by stating its label.
Response: P
(P: 49%, Q: 17%)
